Value source: patent US20260200849A1

- System: C57BL/6J mice
- assayName: In vivo expression by IV, 1.0 mg/kg luciferase RNA-LNPs, whole-body and organ IVIS luminescence
- details: IV 1.0 mg/kg, 24 h post injection, male C57BL/6J mice N=3, Formulation 001, RNA 331
measureName: Whole body (p/s)

[[record]]
compound = "CCCCCCCCCCC(CCCCCCCC)COC(=O)CCCCCOC(=O)NC(COC(=O)NCCN1CCCC1)C(=O)OCCCCCC(=O)OCC(CCCCCCCC)CCCCCCCCCC (stereo not drawn)"
testedsystem = "C57BL/6J mice"
value = "2.49E+09"

[[record]]
compound = "CCCCCCCCCCC(CCCCCCCC)COC(=O)CCCCCOC(=O)NC(COC(=O)NCCN1CCCCCC1)C(=O)OCCCCCC(=O)OCC(CCCCCCCC)CCCCCCCCCC (stereo not drawn)"
testedsystem = "C57BL/6J mice"
value = "1.48E+10"

[[record]]
compound = "CCCCCCCCCCC(CCCCCCCC)COC(=O)CCCCCOC(=O)NC(COC(=O)NCCN1CCCCCC1)C(=O)OCCCCCCCC(=O)OC(CCCCCCCC)CCCCCCCC (stereo not drawn)"
testedsystem = "C57BL/6J mice"
value = "6.81E+09"

[[record]]
compound = "CCCCCCCC/C=C\\CCCCCCCCOC(=O)NC(COC(=O)NCCN1CCCCCC1)C(=O)OCCCCCC(=O)OCC(CCCCCCCC)CCCCCCCCCC (stereo not drawn)"
testedsystem = "C57BL/6J mice"
value = "8.03E+08"

[[record]]
compound = "CCCCCCCCCCC(CCCCCCCC)COC(=O)CCCCCOC(=O)NC(COC(=O)NCCN(C)C)C(=O)OCCCCCC(=O)OCC(CCCCCCCC)CCCCCCCCCC (stereo not drawn)"
testedsystem = "C57BL/6J mice"
value = "1.13E+09"

[[record]]
compound = "CCCCCCCCCCC(CCCCCCCC)COC(=O)CCCCCOC(=O)NC(COC(=O)NCCN1CCCCC1)C(=O)OCCCCCC(=O)OCC(CCCCCCCC)CCCCCCCCCC (stereo not drawn)"
testedsystem = "C57BL/6J mice"
value = "9.25E+09"


---

- assayName: RNA encapsulation efficacy (EE %) by Quant-IT Ribogreen kit
- Type: physicochemical
- details: LNP, Formulation No. 001, RNA No. 331
We begin with a simple list: items and their reported EE (%).
measureName: EE (%)

[[record]]
compound = "CCCCCCCCC(CCCCCC)C(=O)OCCCCCCCCOC(=O)NC(COC(=O)NCCN1CCCCCC1)C(=O)OCCCCCCCCCCC(=O)OCCCCCC (stereo not drawn)"
unitannotation = "%"
value = 95.55

[[record]]
compound = "CCCCC/C=C\\C/C=C\\CCCCCCCCOC(=O)C(COC(=O)NCCN1CCCCC1)NC(=O)OCCCCCCCCOC(=O)C(CCCCCC)CCCCCCCC (stereo not drawn)"
unitannotation = "%"
value = 93.47

[[record]]
compound = "CCCCCCCCCCCOC(=O)NC(COC(=O)NCCN1CCCCC1)C(=O)OCCCCCCCC(=O)OC(CCCCCCCC)CCCCCCCC (stereo not drawn)"
unitannotation = "%"
value = 87.49

[[record]]
compound = "CCCCCCCCC(CCCCCC)C(=O)OCCCCCCCCOC(=O)NC(COC(=O)NCCN1CCCCCC1)C(=O)OCCCCCCCCOC(=O)C(CCCCCC)CCCCCCCC (stereo not drawn)"
unitannotation = "%"
value = 95.41

[[record]]
compound = "CCCCC/C=C\\C/C=C\\CCCCCCCC(=O)N[C@H](COC(=O)NCCN1CCCCCC1)C(=O)OCCCCCC(=O)OC(CCCCCCCC)CCCCCCCC"
unitannotation = "%"
value = 97.08

[[record]]
compound = "CCCCC/C=C\\C/C=C\\CCCCCCCCOC(=O)NC(COC(=O)NCCN1CCCCCC1)C(=O)OCCCCCCCOC(=O)CCCCCCCCC (stereo not drawn)"
unitannotation = "%"
value = 90.80

[[record]]
compound = "CCCCCCCCC(CCCCCC)C(=O)OCCCCCCCCOC(=O)NC(COC(=O)NCCN(C)C)C(=O)OCCCCCCCCOC(=O)C(CCCCCC)CCCCCCCC (stereo not drawn)"
unitannotation = "%"
value = 96.96

[[record]]
compound = "CCCCCCCCCC(=O)OCCCCCCCOC(=O)C(COC(=O)NCCN(C)C)NC(=O)OCCCCCCCCOC(=O)C(CCCCCC)CCCCCCCC (stereo not drawn)"
unitannotation = "%"
value = 97.46

[[record]]
compound = "CCCCC/C=C\\C/C=C\\CCCCCCCC(=O)NC(COC(=O)NCCN1CCCCC1)C(=O)OCCCCCCCC(=O)OC(CCCCCCCC)CCCCCCCC (stereo not drawn)"
unitannotation = "%"
value = 94.58

[[record]]
compound = "CCCCCCCCCCCOC(=O)CCCCCOC(=O)C(COC(=O)NCCN1CCCCCC1)NC(=O)OCCCCCCCCOC(=O)C(CCCCCC)CCCCCCCC (stereo not drawn)"
unitannotation = "%"
value = 90.24

[[record]]
compound = "CCCCCCCCCCC(CCCCCCCC)COC(=O)CCCCCOC(=O)NC(COC(=O)NCCN1CCCCC1)C(=O)OCCCCCC(=O)OCC(CCCCCCCC)CCCCCCCCCC (stereo not drawn)"
unitannotation = "%"
value = 94.34

[[record]]
compound = "CCCCCCCCCC(=O)OCCCCCCCOC(=O)C(COC(=O)NCCN1CCCCC1)NC(=O)OCCCCCCCCOC(=O)C(CCCCCC)CCCCCCCC (stereo not drawn)"
unitannotation = "%"
value = 92.12

[[record]]
compound = "CCCCC/C=C\\C/C=C\\CCCCCCCC(=O)N[C@@H](COC(=O)NCCN1CCCCC1)C(=O)OCCCCCCCC(=O)OC(CCCCCCCC)CCCCCCCC"
unitannotation = "%"
value = 95.30

[[record]]
compound = "CCCCC/C=C\\C/C=C\\CCCCCCCCOC(=O)NC(COC(=O)NCCNC)C(=O)OCCCCCC(=O)OCC(CCCCCCCC)CCCCCCCCCC (stereo not drawn)"
unitannotation = "%"
value = 98.30

[[record]]
compound = "CCCCCCCCCCC(CCCCCCCC)COC(=O)CCCCCOC(=O)NC(COC(=O)NCCN1CCCCCC1)C(=O)OCCCCCCCC(=O)OC(CCCCCCCC)CCCCCCCC (stereo not drawn)"
unitannotation = "%"
value = 96.51

[[record]]
compound = "CCCCCCCCCC(=O)OCCCCCCCOC(=O)C(COC(=O)NCCN1CCCCCC1)NC(=O)OCCCCCCCCOC(=O)C(CCCCCC)CCCCCCCC (stereo not drawn)"
unitannotation = "%"
value = 95.74

[[record]]
compound = "CCCCC/C=C\\C/C=C\\CCCCCCCCOC(=O)NC(COC(=O)NCCN1CCCCCC1)C(=O)OCCCCCCCC(=O)OC(CCCCCCCC)CCCCCCCC (stereo not drawn)"
unitannotation = "%"
value = 91.60

[[record]]
compound = "CCCCC/C=C\\C/C=C\\CCCCCCCC(=O)NC(COC(=O)NCCN1CCCCCC1)C(=O)OCCCCCC(=O)OCC(CCCCCCCC)CCCCCCCCCC (stereo not drawn)"
unitannotation = "%"
value = 95.62

[[record]]
compound = "CCCCCCCCCCC(CCCCCCCC)COC(=O)CCCCCOC(=O)NC(COC(=O)NCCN(C)C)C(=O)OCCCCCC(=O)OCC(CCCCCCCC)CCCCCCCCCC (stereo not drawn)"
unitannotation = "%"
value = 97.70

[[record]]
compound = "CCCCC/C=C\\CCOC(=O)CCCCCOC(=O)C(COC(=O)NCCN1CCCCC1)NC(=O)OCCCCCCCCOC(=O)C(CCCCCC)CCCCCCCC (stereo not drawn)"
unitannotation = "%"
value = 88.46

[[record]]
compound = "CCCCCCCC/C=C\\CCCCCCCC(=O)NC(COC(=O)NCCN1CCCCCC1)C(=O)OCCCCCCCCOC(=O)C(CCCCCC)CCCCCCCC (stereo not drawn)"
unitannotation = "%"
value = 92.16

[[record]]
compound = "CCCCCCCC/C=C\\CCCCCCCC(=O)NC(COC(=O)NCCN1CCCCC1)C(=O)OCCCCCCCCOC(=O)C(CCCCCC)CCCCCCCC (stereo not drawn)"
unitannotation = "%"
value = 94.45

[[record]]
compound = "CCCCC/C=C\\C/C=C\\CCCCCCCCOC(=O)NC(COC(=O)NCCN1CCCC1)C(=O)OCCCCCC(=O)OCC(CCCCCCCC)CCCCCCCCCC (stereo not drawn)"
unitannotation = "%"
value = 98.41

[[record]]
compound = "CCCCC/C=C\\CCOC(=O)CCCCCOC(=O)C(COC(=O)NCCN1CCCCCC1)NC(=O)OCCCCCCCCOC(=O)C(CCCCCC)CCCCCCCC (stereo not drawn)"
unitannotation = "%"
value = 91.27

